Recorded values, source patent US20140005163A1.

Biological target: PI3K alpha (Homo sapiens, UniProt P42336)
Construct: p85(iSH2) fusion partner (see partner chain) (N); His tag (C); made in house; host or cells: baculovirus; Tn5 (Trichoplusia ni) or TiniPro insect cells
Sequence (P42336 with tags, fused parts or gaps limits assumed): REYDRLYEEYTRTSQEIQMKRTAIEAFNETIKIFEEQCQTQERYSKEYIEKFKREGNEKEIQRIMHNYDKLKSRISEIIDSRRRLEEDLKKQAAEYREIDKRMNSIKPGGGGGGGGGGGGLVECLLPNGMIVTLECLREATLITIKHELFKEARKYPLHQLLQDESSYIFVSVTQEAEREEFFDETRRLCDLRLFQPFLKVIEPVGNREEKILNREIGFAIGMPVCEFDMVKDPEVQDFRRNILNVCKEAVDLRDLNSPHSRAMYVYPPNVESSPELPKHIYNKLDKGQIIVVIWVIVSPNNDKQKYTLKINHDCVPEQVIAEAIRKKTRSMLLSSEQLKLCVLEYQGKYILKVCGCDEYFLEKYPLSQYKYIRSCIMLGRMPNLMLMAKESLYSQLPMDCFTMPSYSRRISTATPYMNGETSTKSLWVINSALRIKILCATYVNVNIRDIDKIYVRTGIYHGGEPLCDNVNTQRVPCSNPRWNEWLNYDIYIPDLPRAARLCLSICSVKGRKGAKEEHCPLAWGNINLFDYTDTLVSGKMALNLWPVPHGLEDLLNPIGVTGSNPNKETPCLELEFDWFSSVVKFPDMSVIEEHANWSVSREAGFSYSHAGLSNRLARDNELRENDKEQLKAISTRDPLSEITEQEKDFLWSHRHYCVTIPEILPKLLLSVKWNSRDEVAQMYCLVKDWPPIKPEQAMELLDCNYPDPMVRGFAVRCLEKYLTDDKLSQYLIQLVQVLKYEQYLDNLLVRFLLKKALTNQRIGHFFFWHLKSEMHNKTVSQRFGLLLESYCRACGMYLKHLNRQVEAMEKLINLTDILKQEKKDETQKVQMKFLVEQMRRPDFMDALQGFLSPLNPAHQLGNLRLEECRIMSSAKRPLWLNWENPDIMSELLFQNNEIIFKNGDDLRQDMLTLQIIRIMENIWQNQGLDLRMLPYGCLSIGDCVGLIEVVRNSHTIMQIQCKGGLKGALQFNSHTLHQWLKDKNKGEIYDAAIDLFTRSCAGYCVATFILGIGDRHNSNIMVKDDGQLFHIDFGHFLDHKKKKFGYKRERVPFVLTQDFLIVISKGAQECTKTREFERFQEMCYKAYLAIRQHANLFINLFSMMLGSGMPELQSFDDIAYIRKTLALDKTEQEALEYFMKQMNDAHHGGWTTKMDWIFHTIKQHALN
Assay: PI3K alpha kinase assay (Kinase-Glo luminescence)
Format: biochemical
measurement.name: IC50 (nM)

- structure.notation: "CCOc1cccc(-c2ccc3ncc4c(c3c2)n(-c2cn(C)nc2C)c(=O)n4C)c1"
  limit.operator: "="
  value.measured: 38
- structure.notation: "Cc1nn(C)cc1-n1c(=O)n(C)c2cnc3ccc(-c4ccnc(OC(C)C)c4)cc3c21"
  limit.operator: "="
  value.measured: 104
- structure.notation: "COCCn1c(=O)n(C)c2ncc(-c3ccc4ncc5c(c4c3)n(-c3cn(C)nc3C)c(=O)n5C)cc21"
  limit.operator: "="
  value.measured: 39
- structure.notation: "CCn1cc(-n2c(=O)n(C)c3cnc4ccc(-c5cnc(OC)nc5)cc4c32)c(C)n1"
  limit.operator: "="
  value.measured: 30
- structure.notation: "CCOc1ccc(-c2ccc3ncc4c(c3c2)n(-c2cn(CC)nc2C)c(=O)n4C)cc1OC"
  limit.operator: "="
  value.measured: 24
- structure.notation: "CCOc1ccc(-c2ccc3ncc4c(c3c2)n(-c2cc(C(F)(F)F)nn2C)c(=O)n4C)cn1"
  limit.operator: "="
  value.measured: 78
- structure.notation: "Cc1nn(C)cc1-n1c(=O)n(C)c2cnc3ccc(-c4cncc(N5CCOCC5)c4)cc3c21"
  limit.operator: "="
  value.measured: 66
- structure.notation: "Cc1nn(C)cc1-n1c(=O)n(C)c2cnc3ccc(-c4cncc(OC(C)C)c4)cc3c21"
  limit.operator: "="
  value.measured: 6
- structure.notation: "COc1ccc(-c2ccc3ncc4c(c3c2)n(-c2cn(CC(=O)O)nc2C)c(=O)n4C)cn1"
  limit.operator: "="
  value.measured: 5
- structure.notation: "CNc1ncc(-c2ccc3ncc4c(c3c2)n(-c2c(C)nn(C)c2C)c(=O)n4C)cc1Cl"
  limit.operator: "="
  value.measured: 35
- structure.notation: "Cc1ncc(-c2ccc3ncc4c(c3c2)n(-c2cn(C)nc2C)c(=O)n4C)cc1OC(C)C"
  limit.operator: "="
  value.measured: 6
- structure.notation: "COc1ccc(-c2ccc3ncc4c(c3c2)n(-c2cn(CCO)nc2C)c(=O)n4C)cn1"
  limit.operator: "="
  value.measured: 20
- structure.notation: "CNc1ccc(-c2ccc3ncc4c(c3c2)n(-c2cn(CC(=O)N(C)C)nc2C)c(=O)n4C)cn1"
  limit.operator: "="
  value.measured: 16
- structure.notation: "Cc1nn(C)cc1-n1c(=O)n(C)c2cnc3ccc(-c4cnc(Cl)c(NS(C)(=O)=O)c4)cc3c21"
  limit.operator: "="
  value.measured: 3
- structure.notation: "Cc1nn(C)cc1-n1c(=O)n(C)c2cnc3ccc(-c4cncc(N)c4)cc3c21"
  limit.operator: "="
  value.measured: 14
- structure.notation: "COC(C)(C)c1cncc(-c2ccc3ncc4c(c3c2)n(-c2cn(C)nc2C)c(=O)n4C)c1"
  limit.operator: "="
  value.measured: 10
- structure.notation: "CCOc1cc(-c2ccc3ncc4c(c3c2)n(-c2cn(CC)nc2C)c(=O)n4C)ccc1OC"
  limit.operator: "<"
  value.measured: 3
- structure.notation: "Cc1nn(C)cc1-n1c(=O)n(C)c2cnc3ccc(-c4cnc(CO)c(OC(C)C)c4)cc3c21"
  limit.operator: "="
  value.measured: 13
- structure.notation: "Cc1nn(C)cc1-n1c(=O)n(C)c2cnc3ccc(-c4cnc(N)c(Cl)c4)cc3c21"
  limit.operator: "="
  value.measured: 18
- structure.notation: "Cc1nn(C)cc1-n1c(=O)n(C)c2cnc3ccc(-c4cccc(S(C)(=O)=O)c4)cc3c21"
  limit.operator: "="
  value.measured: 20
